Where these numbers come from: patent US12077503B2

Tested on: ryegrass, Italian (Italian ryegrass, Lolium multiflorum)
Assay: Test A postemergence
Type: in vivo
Settings: Lolium multiflorum, post-emergence, 240 h, 125 g ai/ha, postemergence; visual injury on 0 to 100 scale (0 no effect, 100 complete control), approx. 10 d; read-out: Ryegrass, Italian plant response rating
The following compounds are listed with their measured pest or weed control at 125 g/ha values.

COMPOUND	EXPERIMENTAL SYSTEM	pest or weed control at 125 g/ha
CN1C[C@H](c2csc3c2CCCC3)[C@@H](C(=O)Nc2ccc(F)c(F)c2F)C1=O	ryegrass, Italian (Italian ryegrass, Lolium multiflorum)	0%
CON1CC[C@H](c2ccc(C(F)(F)F)cc2)[C@@H](C(=O)Nc2ccc(F)c(F)c2F)C1=O	ryegrass, Italian (Italian ryegrass, Lolium multiflorum)	0%
Cc1cc([C@H]2CN(C)C(=O)[C@@H]2C(=O)Nc2ccc(F)c(F)c2F)ccc1Br	ryegrass, Italian (Italian ryegrass, Lolium multiflorum)	20%
Cc1ccc([C@H]2CN(C)C(=O)[C@]2(O)C(=O)Nc2cccc(F)c2F)cc1 (racemic)	ryegrass, Italian (Italian ryegrass, Lolium multiflorum)	0%
COc1cccc([C@H]2CN(C)C(=O)[C@@H]2C(=O)Nc2cccc(F)c2F)c1F	ryegrass, Italian (Italian ryegrass, Lolium multiflorum)	30%

---

Test system: barnyardgrass (Echinochloa crus-galli)
Assay: Test A preemergence
Assay type: in vivo
Conditions: Echinochloa crus-galli, pre-emergence, 240 h, 125 g ai/ha, preemergence; visual injury rating, 0 to 100 scale where 0 is no effect and 100 is complete control; approximately 10 d; read-out: Barnyardgrass plant response rating
ATTRIBUTE MEASURED: pest or weed control at 125 g/ha (%)

RECORD SMILES	ATTRIBUTE MEASURED	RESULT
COc1ccc([C@H]2CN(C)C(=O)[C@@H]2C(=O)Nc2ccccc2SC)c(OC)c1	pest or weed control at 125 g/ha	0
Cc1ccc([C@H]2CCN(C)C(=O)[C@@H]2C(=O)Nc2ccccc2C(F)(F)F)cc1	pest or weed control at 125 g/ha	70
Cc1cccc([C@H]2CN(C)C(=O)[C@@H]2C(=O)Nc2cccc(F)c2C)c1	pest or weed control at 125 g/ha	90
O=C1NC[C@H](c2cccc(C(F)(F)F)c2)[C@H]1C(=O)Nc1ccccc1-n1cncn1	pest or weed control at 125 g/ha	0
CN1C[C@H](c2ccc(F)c(Oc3ccccc3)c2)[C@@H](C(=O)Nc2cccc(F)c2F)C1=O	pest or weed control at 125 g/ha	60
O=C1NC[C@H](c2ccc(Cl)c(F)c2)[C@H]1C(=O)Nc1cccc(F)c1F	pest or weed control at 125 g/ha	90
Cn1ccc2ccc([C@H]3CNC(=O)[C@@H]3C(=O)Nc3cccc(F)c3F)cc21	pest or weed control at 125 g/ha	0
O=C(Nc1ccc(F)c(F)c1F)[C@H]1C(=O)N(CC(F)F)C[C@@H]1c1cccc(C(F)(F)F)c1	pest or weed control at 125 g/ha	20

---

System: barnyardgrass (Echinochloa crus-galli)
Assay: Test B flooded paddy test
Format: in vivo
Conditions: Flood, 250 g ai/ha; 0 to 100 scale where 0 is no effect and 100 is complete control; 13 to 15 d
Entries and their Plant response rating, Barnyardgrass values follow.
ATTRIBUTE MEASURED: Plant response rating, Barnyardgrass

COMPOUND	EXPERIMENTAL SYSTEM	ATTRIBUTE MEASURED	RESULT
O=C1NCC(c2ccsc2Cl)C1C(=O)Nc1cccc(F)c1F (stereo not drawn)	barnyardgrass (Echinochloa crus-galli)	Plant response rating, Barnyardgrass	0
O=C1NCC(c2ccccc2-c2ccccc2)C1C(=O)Nc1cccc(F)c1F (racemic)	barnyardgrass (Echinochloa crus-galli)	Plant response rating, Barnyardgrass	0
N#Cc1cccc(C2CNC(=O)C2C(=O)Nc2cccc(F)c2F)c1 (stereo not drawn)	barnyardgrass (Echinochloa crus-galli)	Plant response rating, Barnyardgrass	50
O=C1NCC(c2ccsc2Cl)C1C(=O)Nc1ccccc1F (stereo not drawn)	barnyardgrass (Echinochloa crus-galli)	Plant response rating, Barnyardgrass	0
O=C1NCC(c2cccc(Br)c2)C1C(=O)Nc1ccccc1F (racemic)	barnyardgrass (Echinochloa crus-galli)	Plant response rating, Barnyardgrass	35
O=C1NCC(c2cccc(O)c2)C1C(=O)Nc1ccccc1C(F)(F)F (racemic)	barnyardgrass (Echinochloa crus-galli)	Plant response rating, Barnyardgrass	0
COCc1cccc(C2CNC(=O)C2C(=O)Nc2ccccc2F)c1 (stereo not drawn)	barnyardgrass (Echinochloa crus-galli)	Plant response rating, Barnyardgrass	60
CCc1ccc(C2CNC(=O)C2C(=O)Nc2ccccc2S(C)(=O)=O)cc1 (stereo not drawn)	barnyardgrass (Echinochloa crus-galli)	Plant response rating, Barnyardgrass	35
O=C1NCC(c2ccc(F)c(F)c2)C1C(=O)Nc1n[nH]cc1Br (racemic)	barnyardgrass (Echinochloa crus-galli)	Plant response rating, Barnyardgrass	0
CN1CC(c2ccc(F)cc2)C(C(=O)Nc2cccc(F)c2F)C1=O (stereo not drawn)	barnyardgrass (Echinochloa crus-galli)	Plant response rating, Barnyardgrass	85
Cc1ccc(C2CN(C)C(=O)C2C(=O)Nc2ccc(F)cc2F)cc1 (stereo not drawn)	barnyardgrass (Echinochloa crus-galli)	Plant response rating, Barnyardgrass	85
O=C1NCC(c2ccc(F)cc2F)C1C(=O)Nc1ccc(F)cc1F (racemic)	barnyardgrass (Echinochloa crus-galli)	Plant response rating, Barnyardgrass	0
O=C1NCC(c2cccc(F)c2F)C1C(=O)Nc1cccc(F)c1F (stereo not drawn)	barnyardgrass (Echinochloa crus-galli)	Plant response rating, Barnyardgrass	75
CN1CC(c2cccc(OC(F)(F)C(F)F)c2)C(C(=O)Nc2cccc(F)c2F)C1=O (stereo not drawn)	barnyardgrass (Echinochloa crus-galli)	Plant response rating, Barnyardgrass	60
Cc1cccc(C2CN(C)C(=O)C2C(=O)Nc2ccccc2F)c1 (stereo not drawn)	barnyardgrass (Echinochloa crus-galli)	Plant response rating, Barnyardgrass	75
O=C1NCC(c2cc(C(F)(F)F)cc(C(F)(F)F)c2)C1C(=O)Nc1ccccc1F (stereo not drawn)	barnyardgrass (Echinochloa crus-galli)	Plant response rating, Barnyardgrass	55
O=C1NCC(c2csc(Br)c2)C1C(=O)Nc1cccc(F)c1F (racemic)	barnyardgrass (Echinochloa crus-galli)	Plant response rating, Barnyardgrass	60
CCc1ccc(C2CNC(=O)C2C(=O)Nc2ccccc2F)cc1 (stereo not drawn)	barnyardgrass (Echinochloa crus-galli)	Plant response rating, Barnyardgrass	0
Cc1ccc(C2CNC(=O)C2C(=O)Nc2ccc(F)cc2F)cc1C(F)(F)F (racemic)	barnyardgrass (Echinochloa crus-galli)	Plant response rating, Barnyardgrass	20
O=C1NCC(c2ccc(Br)cc2)C1C(=O)Nc1cccc(F)c1F (stereo not drawn)	barnyardgrass (Echinochloa crus-galli)	Plant response rating, Barnyardgrass	75
CS(=O)(=O)c1ccccc1NC(=O)C1C(=O)NCC1c1ccc(C2CC2)cc1 (racemic)	barnyardgrass (Echinochloa crus-galli)	Plant response rating, Barnyardgrass	0
O=C1NCC(c2cccnc2)C1C(=O)Nc1ccccc1C(F)(F)F (racemic)	barnyardgrass (Echinochloa crus-galli)	Plant response rating, Barnyardgrass	0
CN1CC(c2ccc(F)c(C(F)(F)F)c2)C(C(=O)Nc2ccccc2S(C)(=O)=O)C1=O (stereo not drawn)	barnyardgrass (Echinochloa crus-galli)	Plant response rating, Barnyardgrass	65
COc1ccc(N2CC(c3cccc(C(F)(F)F)c3)C(C(=O)Nc3ccccc3F)C2=O)cc1 (stereo not drawn)	barnyardgrass (Echinochloa crus-galli)	Plant response rating, Barnyardgrass	0
Cc1ccc(C2CNC(=O)C2C(=O)Nc2ccccc2F)cc1C(F)(F)F (racemic)	barnyardgrass (Echinochloa crus-galli)	Plant response rating, Barnyardgrass	35
O=C1NCC(c2cccc(Br)c2)C1C(=O)Nc1ccc(F)c(F)c1F (racemic)	barnyardgrass (Echinochloa crus-galli)	Plant response rating, Barnyardgrass	40
O=C1NCC(c2cc(F)cc(C(F)(F)F)c2)C1C(=O)Nc1ccc(F)cc1F (stereo not drawn)	barnyardgrass (Echinochloa crus-galli)	Plant response rating, Barnyardgrass	50

---

A collection of molecules and their measured pest or weed control at 250 g/ha
System: ivy-leaved morning glory (Ipomoea hederacea)
Experiment: Test G Post-Emergence Protocol
Format: in vivo
Conditions: Ipomoea, post-emergence, 312 h, 250 g ai/ha, evaluated after 13 days, 100=total damage to plant, 0=no damage to plant, read-out: Morningglory, Ivy-leaved damage rating

MOLECULE	pest or weed control at 250 g/ha, %
COc1cc(F)cc(C2CN(C)C(=O)C2C(=O)Nc2cccc(F)c2F)c1 (stereo not shown)	70
CN1C[C@H](c2cc(C(C)(C)C)ncn2)[C@@H](C(=O)Nc2ccc(F)c(F)c2F)C1=O (racemic)	0
CN1C[C@H](c2cccc(C(F)(F)F)c2)[C@@H](C(=O)Nc2cccc(O)c2F)C1=O (racemic)	0
Cc1ccc(C2CN(C)C(=O)C2C(=O)Nc2cccc(F)c2F)cc1[N+](=O)[O-] (stereo not shown)	70
CN1C[C@H](c2ccc(C(F)(F)F)cc2)[C@@H](C(=O)Nc2cccc(F)c2S(C)(=O)=O)C1=O (racemic)	20
CN1C[C@H](c2cccc(C(F)(F)F)c2)[C@@H](C(=O)Nc2cc(C#N)ccn2)C1=O (racemic)	0
CN1C[C@@H](c2cccc(C(F)(F)F)c2)[C@H](C(=O)Nc2cccc(F)n2)C1=O	0
